target: Recombinant human PDE5A (Homo sapiens, UniProt O76074); test: PDE inhibition assay against PDE5A (Cyclic Nucleotide Phosphodiesterase Assay Kit, spectrophotometric); conditions: in vitro; read-out: Inhibitory activity (IC50) PDE5A
pIC50: −log10 of the molar value.
Readout Type: pIC50

>>> observed_result("C[C@H]1CC[C@]2(C(=O)O)CC[C@]3(C)C(=CC[C@@H]4[C@@]5(C)CC[C@H](O[C@@H]6OC[C@@H](O)[C@H](O)[C@H]6O[C@@H]6O[C@H](CO)[C@@H](O)[C@H](O)[C@H]6O)C(C)(C)[C@@H]5CC[C@]43C)[C@@H]2[C@]1(C)O")
2.74
>>> observed_result("O=C(C=Cc1ccc(O)c(O)c1)OC1CC(O)(C(=O)O)CC(O)C1OC(=O)C=Cc1ccc(O)c(O)c1 (centres unmarked)")
3.71

---

biological target: Recombinant human PDE5A (Homo sapiens); assay: PDE inhibition assay against PDE5A (Cyclic Nucleotide Phosphodiesterase Assay Kit, spectrophotometric); conditions: in vitro; read-out: Inhibitory activity (IC50) PDE5A
Readout Type: IC50

>>> observed_result("C[C@@H]1O[C@@H](O[C@H]2[C@H](O[C@H]3[C@H](O[C@H]4CC[C@]5(C)[C@H]6CC=C7[C@H]8[C@](C(=O)O)(CC[C@H](C)[C@@]8(C)O)CC[C@@]7(C)[C@]6(C)CC[C@H]5C4(C)C)OC[C@@H](O)[C@@H]3O)O[C@H](CO)[C@@H](O)[C@@H]2O)[C@H](O)[C@H](O)[C@H]1O")
"48.8 µM"
>>> observed_result("C[C@@H]1CC[C@]2(C(=O)O)CC[C@]3(C)C(=CCC4[C@@]5(C)CC[C@H](O)[C@](C)(C(=O)O)C5CC[C@]43C)C2[C@]1(C)O (stereo partly drawn)")
"177 µM"
>>> observed_result("C[C@@H]1CC[C@]2(C(=O)OC3OC(CO)C(O)C(O)C3O)CC[C@]3(C)C(=CCC4[C@@]5(C)CC[C@H](O)[C@](C)(C(=O)O)C5CC[C@]43C)C2[C@]1(C)O (stereo partly drawn)")
"22.4 µM"
